FYI, the data here is from patent US20070060518A1.

Target: T1, HLA-A*0201 on T2 cells (human)
T1 construct: whole, on cells; also called HLA-A2
Experiment: T2 cell stability assay, flow cytometry
Some binders, each annotated with its measured Stability (T1/2).
Quick reminder: number only, in h, skip the unit.

The cases that follow already have their Stability (T1/2) on record.
| Binder | Stability (T1/2) / h |
| --- | --- |
| FVSEKIFSV [SSX2 41-49 (K41F, A42V, Y48S)] | 20 |
| FVSEKLFYV [SSX2 41-49 (K41F, A42V, I46L)] | 24 |
| FVSEKLFTA [SSX2 41-49 (K41F, A42V, I46L, Y48T, V49A)] | 12 |
| FVSEKIFXV (4-fluorophenylalanine (Phe(4-F)) at position 48 (P8), also called FVSEKIF(Phe-4F)V) [SSX2 41-49 (K41F, A42V, Y48(Phe-4F))] | 24 |

# next binder below
Name the recorded Stability (T1/2) of the item FVSEKLFTV [SSX2 41-49 (K41F, A42V, I46L, Y48T)] in your answer. 24
